Sourced from BigSolDB 2.1

conditions: in n-pentanol, 353.15 K
property.measured: solubility (mole fraction)
Field format: numeric only.

Looking for the measured solubility (mole fraction) of O=C(O)c1ccc(-c2ccc(C(=O)O)o2)o1 , can you help?
0.000757

###

conditions: in isopropanol, 313.15 K
property.measured: solubility (mole fraction)
Answer as a number with no unit attached.

// query solubility (mole fraction) value for entry O=C(O)c1ccc(-c2ccc(C(=O)O)o2)o1
0.000154

###

settings: in acetic acid, 343.15 K
property.measured: solubility (mole fraction)
Keep the answer to the number alone.

Need solubility (mole fraction) of O=C(O)c1ccc(-c2ccc(C(=O)O)o2)o1 , thanks.
0.000112

###

details: in n-pentanol, 333.15 K
property.measured: solubility (mole fraction)
Just the number, please.

Look at this compound and give its reported solubility (mole fraction). O=C(O)c1ccc(-c2ccc(C(=O)O)o2)o1
0.000214

###

settings: in isopropanol, 353.15 K
property.measured: solubility (mole fraction)
The answer should be written as a number, with no unit following it.

GET /values?readout=solubility (mole fraction)&item= O=C(O)c1ccc(-c2ccc(C(=O)O)o2)o1
0.00116

###

details: in water, 323.15 K
property.measured: solubility (mole fraction)
Just the number.

Query: solubility (mole fraction); subject: O=C(O)c1ccc(-c2ccc(C(=O)O)o2)o1
2.55e-06

###

conditions: in water, 343.15 K
property.measured: solubility (mole fraction)
Write the value as a bare number.

Field request: solubility (mole fraction) | item: O=C(O)c1ccc(-c2ccc(C(=O)O)o2)o1
4.84e-06

###

conditions: in isopropanol, 343.15 K
property.measured: solubility (mole fraction)
Provide a numeric answer; units are not to be included.

Suppose we examine the compound O=C(O)c1ccc(-c2ccc(C(=O)O)o2)o1 ; what solubility (mole fraction) value has been reported?
0.000592

###

conditions: in water, 313.15 K
property.measured: solubility (mole fraction)
Just the number.

Give the measured solubility (mole fraction) of O=C(O)c1ccc(-c2ccc(C(=O)O)o2)o1 .
1.97e-06

###

conditions: in acetic acid, 333.15 K
property.measured: solubility (mole fraction)
Reply: number alone, nothing else.

Give its solubility (mole fraction) value. Item: O=C(O)c1ccc(-c2ccc(C(=O)O)o2)o1
6.79e-05

###

conditions: in water, 363.15 K
property.measured: solubility (mole fraction)
Please give only the number in your answer, with no unit.

Record request: solubility (mole fraction) value, item O=C(O)c1ccc(-c2ccc(C(=O)O)o2)o1
9.09e-06

###

conditions: in DMAc, 298.15 K
property.measured: solubility (mole fraction)
In your answer, state the number alone without any accompanying words.

May I ask what solubility (mole fraction) has been recorded for O=C(O)c1ccc(-c2ccc(C(=O)O)o2)o1 ?
0.0166

###

details: in acetonitrile, 333.15 K
property.measured: solubility (mole fraction)
Write the value as a bare number.

# query: solubility (mole fraction) of entry O=C(O)c1ccc(-c2ccc(C(=O)O)o2)o1
7.91e-06

###

conditions: in acetonitrile, 363.15 K
property.measured: solubility (mole fraction)
// response body must contain only the number

Fill blank: measured solubility (mole fraction) of the compound O=C(O)c1ccc(-c2ccc(C(=O)O)o2)o1 is ____.
2.12e-05

###

conditions: in water, 298.15 K
property.measured: solubility (mole fraction)
Answer with a number only.

# lookup: solubility (mole fraction) of O=C(O)c1ccc(-c2ccc(C(=O)O)o2)o1
9.64e-07
